Ref: ChEMBL document CHEMBL5518196

experiment: Cmax in male ICR mouse at 12.5 mg/kg, iv measured after 24 hrs by LC-MS/MS analysis; type: ADME, organism-based; conditions: in vivo
parameter: Cmax (ng/mL)
Expressed in ng/mL, but write only the number.

Sample COCCCCNC(=O)c1cccc(C2N(c3ncccc3OC)C(=O)CS2(=O)=O)n1 (racemic) ; Cmax observed: 5420

* * *

system: HOS-TE85; experiment: Antiproliferative activity against human MNNG/HOS cells assessed as inhibition of cell growth incubated for 72 hrs by CCK8 assay; assay type: functional, cell-based; settings: HOS-TE85, 72 h
parameter: IC50

| compound | system | IC50 |
| --- | --- | --- |
| Cc1cccc(N2C(=O)CS(=O)(=O)C2c2cccc(C(=O)NCCCCc3ccccc3)c2)c1 (stereo not drawn) | HOS-TE85 | 230 nM |
| O=C(NCCCCc1ccccc1)c1cccc(C2N(c3ccccc3)C(=O)CS2(=O)=O)c1 (stereo not drawn) | HOS-TE85 | 150 nM |
| Cc1ccnc(N2C(=O)CS[C@H]2c2cccc(C(=O)NCCCCn3cccn3)c2)c1 | HOS-TE85 | > 10000 nM |
| O=C(CCCNC(=O)c1cccc(C2N(c3ccccn3)C(=O)CS2(=O)=O)n1)Nc1ccccc1 (stereo not drawn) | HOS-TE85 | > 1000 nM |
| O=C(NCCCCc1ccccc1)c1cccc(C2N(c3cc(Cl)ccn3)C(=O)CS2(=O)=O)n1 (stereo not drawn) | HOS-TE85 | 469 nM |

Now look at this one.
Summary line: O=C(NCCCCc1ccccc1)c1cccc(C2N(Cc3ccccc3)C(=O)C[S+]2[O-])c1 (stereo not drawn) , HOS-TE85, reported IC50 = > 10000 nM
